# target: T1, 4H_BCR
# T1 chain: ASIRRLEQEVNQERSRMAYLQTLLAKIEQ
# testSummary: two-hybrid library CCmax;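 note: natural log of median RNA to DNA barcode read ratio; higher means stronger binding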
# testParameters: mean of both orientations
readoutKind: interaction score

>>> print(df.to_string())
                                     binder        readoutkind  endpointvalue
0  DKIAALKAENAALEAKIAALKAKNAALKG [4H2736-AA]  interaction score          -1.69

[A] DKNAALKAENAALKAEIAALEAKIAALKG [4H3782-AA]
[B] DKIAALKAENAALEAKNAALKAKIAALKG [4H2750-AA]
Input: Which of these two has the smaller recorded interaction score: A or B ? // output: label of the selected item
Output: B

[P] DKNAALKAEIAALKAKNAALKAEIAALEG [4H3705-AA]
[Q] DEIAALEAKIAALKAENAALEAEIAALEG [4H337-AA]
[R] DEIAALEAKNAALEAENAALEAKIAALKG [4H406-AA]
Input: With regard to interaction score, arrange the entries in ascending order, please. Thanks in advance for listing the labels in the requested order.
Output: R, P, Q
(R: -2.11, P: -1.43, Q: -0.845)

[P] DEIAALKAEIAALEAENAALEAKNAALEG [4H535-AA]
[Q] DKIAALKAKNAALEAKNAALKAEIAALEG [4H3001-AA]
Input: // pick min by interaction score: P , Q Returns: label corresponding to the selected item.
Output: Q
(Q: -2.15, P: -1.23)
